- ASSAYED TARGET: human GPR84 receptor (Homo sapiens, UniProt Q9NQS5)
- Construct: host or cells: HEK293, transiently transfected
- Sequence (Q9NQS5 whole entry): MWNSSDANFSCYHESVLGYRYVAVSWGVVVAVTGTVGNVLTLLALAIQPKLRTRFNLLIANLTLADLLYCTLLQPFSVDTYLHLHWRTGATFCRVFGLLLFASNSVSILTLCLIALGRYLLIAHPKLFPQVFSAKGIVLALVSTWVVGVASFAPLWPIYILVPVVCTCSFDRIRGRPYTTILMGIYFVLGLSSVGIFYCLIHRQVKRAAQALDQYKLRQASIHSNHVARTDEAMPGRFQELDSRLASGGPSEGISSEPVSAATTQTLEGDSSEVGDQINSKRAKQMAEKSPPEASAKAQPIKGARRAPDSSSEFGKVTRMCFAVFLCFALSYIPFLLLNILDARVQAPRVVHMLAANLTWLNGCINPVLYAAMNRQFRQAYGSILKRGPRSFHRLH
- MEASUREMENT NOTES: Gαi biosensor BRET assay (GPR84 antagonism vs agonist ZQ-16)
- Type: cell-based
- RUN PARAMETERS: tested at 10 μM (concentration code D); HEK293 cells; 200 nmol/L agonist ZQ-16
- Description: Background—The following assays can be used for determination of GPR84 activation in living HEK293 cells. […] Bioluminescence Resonance Energy Transfer (BRET) Measurement-HEK293 cells were transfected with GPR84-Rluc8 and rGFP-FYVE for the EEs trafficking biosensor or with GPR84, Gai2-Rluc8, GFP10-Gy2, and GB1 for the Ga; biosensor. […] The BRET signal was calculated as the ratio of light emitted by acceptor (GFP10, rGFP) over the light emitted by donor (Rluc8). […]
inhibition at 10 µM values by entry

Lab note: Cc1cc(OCC(=O)N(C)C2CNC2)cc(=O)n1[C@H](C)c1ccc(C#CC2CC2)cc1 [Compound I-78] gave inhibition at 10 µM of > 75%

Lab note: Cc1cc(OCC(=O)N(C(C)C)C(C)C)cc(=O)n1[C@H](C)c1ccc(C#CC2CC2)cc1 [Compound I-347] gave inhibition at 10 µM of > 75%

Lab note: Cc1cc(OCC(=O)NC2CNC2)cc(=O)n1[C@H](C)c1ccc(C#CC2CC2)cc1 [Compound I-69] gave inhibition at 10 µM of 25 to 50%

Lab note: Cc1cc(OCC2COCCO2)cc(=O)n1[C@H](C)c1ccc(NC(=O)c2cnccn2)c(F)c1 (stereo partly shown) [Compound I-9] gave inhibition at 10 µM of < 25%

Alright, here's another compound for you.
Lab note: Cc1cc(C#CC2CC2)cc(=O)n1[C@@H](C)c1ccc(C#CC2CC2)cc1 [Compound I-234] gave inhibition at 10 µM of < 25%

---

inhibition at 10 µM values by entry
- ASSAYED TARGET: human GPR84 receptor (Homo sapiens, UniProt Q9NQS5)
- Construct: host or cells: HEK293, transiently transfected
- MEASUREMENT NOTES: Gαi biosensor BRET assay (GPR84 antagonism vs agonist ZQ-16)
- Assay type: cell-based
- RUN PARAMETERS: tested at 10 μM (concentration code D); HEK293 cells; 200 nmol/L agonist ZQ-16

Consider the following illustrative entries.
Lab note: Cc1cc(OCC(=O)NC2CCN(C)CC2)cc(=O)n1[C@H](C)c1ccc(C#CC2CC2)cc1 gave inhibition at 10 µM of 50 to 75%

Lab note: Cc1cc(OCC(=O)N2CC3(COC3)C2)cc(=O)n1[C@H](C)c1ccc(C#CC2CC2)cc1 gave inhibition at 10 µM of > 75%

Lab note: Cc1cc(OCC(=O)N2CC(F)(F)C2)cc(=O)n1[C@H](C)c1ccc(C#CC2CC2)cc1 gave inhibition at 10 µM of > 75%

***
Lab note: Cc1cc(OCC(=O)N(C)C)cc(=O)n1[C@H](C)c1ccc(C#CC2CC2)cc1Br gave inhibition at 10 µM of 50 to 75%

---

pIC50 values by entry
- ASSAYED TARGET: human GPR84 receptor (Homo sapiens, UniProt Q9NQS5)
- Construct: host or cells: HEK293, transiently transfected
- MEASUREMENT NOTES: Gαi biosensor BRET assay (GPR84 antagonism vs agonist ZQ-16)
- Type: cell-based
- RUN PARAMETERS: Gαi biosensor BRET assay, HEK293 cells, 200 nmol/L agonist ZQ-16
pIC50: −log10 of the molar value.

Lab note: Cc1cc(OCc2ncccc2C(F)(F)F)cc(=O)n1[C@H](C)c1ccc(C#CC2CC2)cc1 gave pIC50 of 6.00 to 6.52

Lab note: Cc1cc(OCC(=O)N2CCOCC2)cc(=O)n1[C@H](C)c1ccc(C#CC2CC2)cc1 gave pIC50 of ≥ 6.52

Lab note: Cc1cc(OCC(=O)N2CC3CCC2CO3)cc(=O)n1[C@H](C)c1ccc(C#CC2CC2)cc1 (stereo partly drawn) [Compound I-326] gave pIC50 of 5.52 to 6.00

Lab note: Cc1cc(OCc2nnnn2C)cc(=O)n1[C@H](C)c1ccc(C#CC2CC2)cc1 gave pIC50 of ≥ 6.52

***
Lab note: Cc1cc(OCC(=O)N2CC3C(C2)C3(C)C)cc(=O)n1[C@H](C)c1ccc(C#CC2CC2)cc1 (stereo partly drawn) gave pIC50 of 6.00 to 6.52

Lab note: COC(COc1cc(C)n([C@H](C)c2ccc(C#CC3CC3)cc2)c(=O)c1)C(C)(C)C (stereo partly drawn) gave pIC50 of < 5.52

Lab note: Cc1cc(OCC(=O)N2CC3CCC2CO3)cc(=O)n1[C@H](C)c1ccc(C#CC2CC2)cc1 (stereo partly drawn) [Compound I-327] gave pIC50 of 5.52 to 6.00

Lab note: CCN(CC)C(=O)COc1cc(C)n([C@H](C)c2ccc(C#CC3CC3)cc2)c(=O)c1 gave pIC50 of ≥ 6.52

Lab note: Cc1cc(OCC(=O)N2C[C@H](O)[C@@H](O)C2)cc(=O)n1[C@H](C)c1ccc(C#CC2CC2)cc1 gave pIC50 of ≥ 6.52

Lab note: Cc1cc(OCC(=O)N(C2CC2)C2CC2)cc(=O)n1[C@H](C)c1ccc(C#CC2CC2)cc1 gave pIC50 of ≥ 6.52

Lab note: Cc1cc(OCC(=O)N2CC(C)(C)C2)cc(=O)n1[C@H](C)c1ccc(C#CC2CC2)cc1 gave pIC50 of 6.00 to 6.52

Lab note: Cc1cc(OCC(=O)N2CC[C@@H](O)C2)cc(=O)n1[C@H](C)c1ccc(C#CC2CC2)cc1 gave pIC50 of ≥ 6.52

Lab note: Cc1cc(OCC(=O)N2CC3CCC(C2)O3)cc(=O)n1[C@H](C)c1ccc(C#CC2CC2)cc1 gave pIC50 of ≥ 6.52

Lab note: Cc1cc(OCC(=O)N2CCC(=O)C2)cc(=O)n1[C@H](C)c1ccc(C#CC2CC2)cc1 gave pIC50 of ≥ 6.52

Lab note: Cc1cc(OCc2cnc(NS(=O)(=O)C(F)(F)F)nc2)cc(=O)n1[C@H](C)c1ccc(C#CC2CC2)cc1 gave pIC50 of ≥ 6.52

---

- ASSAYED TARGET: human GPR84 receptor (Homo sapiens)
- MEASUREMENT NOTES: Gαi biosensor BRET assay (GPR84 antagonism vs agonist ZQ-16)
- RUN PARAMETERS: Gαi biosensor BRET assay, HEK293 cells, 200 nmol/L agonist ZQ-16
pIC50: −log10 of the molar value.
VALUE TYPE: pIC50

Consider the following illustrative entries.
Lab note: Cc1cc(OCC(=O)N(C)C)cc(=O)n1[C@H](C)c1ccc(C#CC2(C(F)(F)F)CC2)cc1 gave pIC50 of ≥ 6.52

Lab note: Cc1cc(OCC(=O)N2CCC[C@H]2CO)cc(=O)n1[C@H](C)c1ccc(C#CC2CC2)cc1 gave pIC50 of ≥ 6.52

Lab note: Cc1cc(OCC(=O)N2CC[C@H](C(=O)O)C2)cc(=O)n1[C@H](C)c1ccc(C#CC2CC2)cc1 gave pIC50 of ≥ 6.52

Lab note: Cc1cc(OCc2ncc(NS(=O)(=O)C(F)(F)F)cn2)cc(=O)n1[C@H](C)c1ccc(C#CC2CC2)cc1 gave pIC50 of ≥ 6.52

Lab note: Cc1nc(OCC(=O)N2CCCC2)cc(=O)n1[C@H](C)c1ccc(C#CC2CC2)cc1 gave pIC50 of ≥ 6.52

Lab note: Cc1cc(OCC(=O)N2CCC[C@H]2C2CC2)cc(=O)n1[C@H](C)c1ccc(C#CC2CC2)cc1 gave pIC50 of 6.00 to 6.52

***
Lab note: Cc1cc(OCC(=O)N2CC[C@@H]2C(=O)O)cc(=O)n1[C@H](C)c1ccc(C#CC2CC2)cc1 gave pIC50 of 5.52 to 6.00

Lab note: CCC#Cc1ccc([C@@H](C)n2c(C)cc(OCC(=O)N(C)C)cc2=O)cc1 gave pIC50 of ≥ 6.52

Lab note: Cc1cc(OCC(=O)N2CC(F)(F)C2)cc(=O)n1[C@H](C)c1ccc(C#CC2CC2)cc1 gave pIC50 of 6.00 to 6.52

Lab note: Cc1cc(OCC(=O)N2C3CCC2COC3)cc(=O)n1[C@H](C)c1ccc(C#CC2CC2)cc1 gave pIC50 of ≥ 6.52

Lab note: Cc1cc(OCC(=O)N2CC[C@H](F)C2)cc(=O)n1[C@H](C)c1ccc(C#CC2CC2)cc1 gave pIC50 of ≥ 6.52

Lab note: Cc1cc(OCC(=O)N2CCCC2)cc(=O)n1[C@H](C)c1ccc(C#CC2CC2)cc1 gave pIC50 of ≥ 6.52

Lab note: Cc1cc(OCC(=O)N(C)C2CC2)cc(=O)n1[C@H](C)c1ccc(C#CC2CC2)cc1 gave pIC50 of ≥ 6.52

Measured values drawn from patent US20260055117A1 for this set.
